# run description: clinical
# experimental setup: female, human, in vivo, ip, 10 mg/m2, T1/2

test smiles	half-life / h
CC[C@@]1(O)C(=O)OCc2c1cc1n(c2=O)Cc2cc3c(CN(C)C)c(O)ccc3nc2-1	3.9

====

# run description: clinical
# experimental setup: female, human, in vivo, ip, 10 mg/m2, MRT

compound	unit	MRT
CC[C@@]1(O)C(=O)OCc2c1cc1n(c2=O)Cc2cc3c(CN(C)C)c(O)ccc3nc2-1 [topotecan, Topotecan]	h	6.5

====

# run description: clinical
# experimental setup: female, human, in vivo, ip, 20 mg/m2, Cmax

test smiles	Cmax / ng/mL
CC[C@@]1(O)C(=O)OCc2c1cc1n(c2=O)Cc2cc3c(CN(C)C)c(O)ccc3nc2-1	12100
